experiment: ATG_NF_kB_CIS: Attagene CIS-FACTORIAL HepG2 Assay for human Nuclear Factor Kappa B (NF-kB) (AID 2282991); conditions: HepG2 Attagene cis-factorial NF-kB reporter mRNA; actives raise or lower the signal
Activity calls are given as the source filed them. The calls were made as follows: active = hit-call score of the fitted dose curve at least 0.9, where 1 is the maximum; inactive = score below 0.9.
Hello, when you answer, please use one of the following outcomes: t (active), f (inactive)

What is the recorded call for this molecule in the test? `O=S(=O)(O)c1ccccc1`
f

Next:
What is the recorded call for this molecule in the test? `CCCCCCCCCCCC[N+](C)(C)CCCCCCCCCCCC`
f

Can you handle `Cc1ccc2ccc3ccc(C)cc3c2c1` next?
f

Can you handle `FC(F)(F)N1C(F)(F)C(F)(F)OC(F)(F)C1(F)F` next?
f

Can you handle `CCCC=O` next?
f
